Cited source: PubChem BioAssay AID1552

target: UniProt:P61088; experiment: UBE2N binders by NMR, biophysical, purified protein (AID 1552); details: NMR binding to purified UBE2N
Sequence (P61088 whole entry, looked up): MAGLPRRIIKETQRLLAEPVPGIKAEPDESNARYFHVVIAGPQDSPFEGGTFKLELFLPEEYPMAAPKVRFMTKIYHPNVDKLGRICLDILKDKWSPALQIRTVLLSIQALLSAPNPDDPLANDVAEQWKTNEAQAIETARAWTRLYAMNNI
Active and inactive are the calls of the source. How the calls were made is not given here.
endpoint: Kd

Return Kd for the following compound: `COc1c2c(c(CC=C(C)C)c3oc(=O)c(-c4ccc(O)cc4)c(O)c13)OC(C)(C)C=C2`
> 4 mM (inactive)

Return Kd for the following compound: `NCc1ccc2c(c1)OCCCO2`
> 4 mM (inactive)

Return Kd for the following compound: CCC(C)C(=O)O[C@@H]1C[C@@]2(C)[C@H](c3ccoc3)OC(=O)CC23OC2(C)O[C@]14[C@]1(C)[C@@H](CC(=O)OC)C5(C)CC1(O)[C@](O)(C5OC(=O)C1(C)OC1C)[C@@H](OC(C)=O)[C@]34O2 (stereo partly drawn)
> 4 mM (inactive)

Return Kd for the following compound: `O=C(NCc1ccccc1)c1ccc[n+]([O-])c1`
> 4 mM (inactive)

Return Kd for the following compound: `CC(C)CCn1cnc2c1c(=O)n(C)c(=O)n2C`
> 4 mM (inactive)

Return Kd for the following compound: `Cc1cc(N)n(-c2ccccc2)n1`
> 4 mM (inactive)

Return Kd for the following compound: `Cc1noc(C)c1C(=O)N1CCC(Cc2ccccc2)CC1`
> 4 mM (inactive)

Return Kd for the following compound: `O=C(c1ccc(Cl)c(F)c1F)N1CCCC1`
> 4 mM (inactive)

Return Kd for the following compound: `CC(=O)Nc1cc(O)cc(O)c1`
> 4 mM (inactive)

Return Kd for the following compound: `Cc1cc(Cl)ccc1NC(=O)C(N)=O`
> 4 mM (inactive)

Return Kd for the following compound: CC(O)c1nc2ccccc2[nH]1 (stereo not drawn)
> 4 mM (inactive)

Return Kd for the following compound: `OC1CCN(c2nccc(C(F)(F)F)n2)CC1`
> 4 mM (inactive)

Return Kd for the following compound: `CN1CCN(c2ncnc3nc[nH]c23)CC1`
> 4 mM (inactive)

Return Kd for the following compound: `O=C(CSc1ncn[nH]1)c1ccc2c(c1)OCCO2`
> 4 mM (inactive)

Return Kd for the following compound: `O=C1CNC(=O)N1Cc1ccc(Br)cc1`
> 4 mM (inactive)

Return Kd for the following compound: `NCc1csc(-c2ccccc2)n1`
> 4 mM (inactive)

Return Kd for the following compound: `CCOc1ccc(-c2c(=O)n(O)c3ccccc3[n+]2[O-])cc1`
> 4 mM (inactive)

Return Kd for the following compound: CN1CCN(C2CCSC2)CC1 (stereo not drawn)
> 4 mM (inactive)

Return Kd for the following compound: `COc1ncnc(N)c1[N+](=O)[O-]`
> 4 mM (inactive)

Return Kd for the following compound: `COc1cc2c(cc1OC)C(=O)OC2`
> 4 mM (inactive)

Return Kd for the following compound: `CC(=O)Oc1ccc(O)cc1`
> 4 mM (inactive)

Return Kd for the following compound: `CCOC(=O)Cc1cc(=O)n2[nH]c(C)cc2n1`
> 4 mM (inactive)

Return Kd for the following compound: `NC(=O)C1(S(=O)(=O)c2ccccc2)CC1`
> 4 mM (inactive)

Return Kd for the following compound: `COC(=O)c1cccs1`
> 4 mM (inactive)

Return Kd for the following compound: `Cc1ccc(/C=C2/NC(=S)NC2=O)s1`
> 4 mM (inactive)

Return Kd for the following compound: `CNCc1ccco1`
> 4 mM (inactive)

Return Kd for the following compound: `CP(C)(=O)c1cccc(C(=O)O)c1`
> 4 mM (inactive)

Return Kd for the following compound: `O=C(CCc1ccc(O)cc1)c1c(O)cc(O)cc1O[C@@H]1O[C@H](CO)[C@@H](O)[C@H](O)[C@H]1O`
> 4 mM (inactive)

Return Kd for the following compound: `NC(=O)CCn1ncc2ccccc21`
> 4 mM (inactive)

Return Kd for the following compound: `Nc1ccc(Cc2ccc(N)cc2)cc1`
> 4 mM (inactive)

Return Kd for the following compound: `COC(=O)c1ccc(/C=C2/NC(=S)NC2=O)cc1`
> 4 mM (inactive)

Return Kd for the following compound: `Cc1cc(C)n(C/C=C/Cn2nc(C)cc2C)n1`
> 4 mM (inactive)

Return Kd for the following compound: `CCOC(=O)c1c(-c2ccncc2)csc1N`
> 4 mM (inactive)

Return Kd for the following compound: `C(=N\n1cnnc1)/c1cccs1`
> 4 mM (inactive)

Return Kd for the following compound: `Nc1nc2ccc(C(=O)O)cc2s1`
> 4 mM (inactive)

Return Kd for the following compound: `O=C(c1ccccc1F)N1CCN(c2ccccc2)CC1`
> 4 mM (inactive)

Return Kd for the following compound: `Cc1cc(C)n2nc(-c3cccnc3)nc2n1`
> 4 mM (inactive)

Return Kd for the following compound: `Nc1nc(N)nc(N2C(=O)c3ccccc3C2=O)n1`
> 4 mM (inactive)

Return Kd for the following compound: `Cc1cc(C)n2nc(N)nc2n1`
> 4 mM (inactive)

Return Kd for the following compound: C=CC(C)(O)CC/C=C(\C)CCC=C(C)C (stereo not drawn)
> 4 mM (inactive)

Return Kd for the following compound: `Nc1ncc2[nH]cnc2n1`
> 4 mM (inactive)

Return Kd for the following compound: `Cc1cccc(OCc2nnc(N)s2)c1`
> 4 mM (inactive)

Return Kd for the following compound: CC(C)CCCC(C)C1CCC2C3CC(=O)[C@H]4C[C@@H](O)CC[C@]4(C)C3CC[C@]12C (stereo partly drawn)
> 4 mM (inactive)

Return Kd for the following compound: `COC(=O)C[C@H]1C(C)(C)C(=O)[C@@H]2CC3=C(CC[C@]4(C)C3=CC(=O)O[C@H]4c3ccoc3)C1(C)C2=O`
> 4 mM (inactive)

Return Kd for the following compound: NC(=O)NC1C=CS(=O)(=O)C1 (stereo not drawn)
> 4 mM (inactive)

Return Kd for the following compound: `N#Cc1ccccc1CSc1ccccn1`
> 4 mM (inactive)

Return Kd for the following compound: `O=C1NC(=O)C(C(=S)Nc2ccccc2)C(=O)N1`
> 4 mM (inactive)

Return Kd for the following compound: `COc1cc2cc[n+]3cc4c(OC)c(OC)ccc4cc3c2cc1OC`
> 4 mM (inactive)

Return Kd for the following compound: CN1CCC(N2CCCC(C(N)=O)C2)CC1 (stereo not drawn)
> 4 mM (inactive)

Return Kd for the following compound: `Cc1noc(C)c1C(=O)Nc1ccc2c(c1)CCC2`
> 4 mM (inactive)

Return Kd for the following compound: `O=C(O)Cn1c(C(F)(F)F)nc2ccccc21`
> 4 mM (inactive)

Return Kd for the following compound: `O=C1c2ccc(F)cc2C(=O)N1CO`
> 4 mM (inactive)

Return Kd for the following compound: `Nc1cc(=O)[nH]c(SCC(=O)NC2CCCCC2)n1`
> 4 mM (inactive)
